This collection of values is drawn from patent US10787453B2.

Biological target: RBP4 (Homo sapiens (Human))
measure name: pIC50
Entry type: numeric. Quantity: pIC50, the -log10 of concentration in molar units.

Form field: pIC50 recorded for Cc1ccc2nnc(C(=O)N3C[C@@H]4CN(c5ccccc5C(F)(F)F)C[C@@H]4C3)n2c1 [Compound 65] with RBP4 (Homo sapiens (Human)) (enter value) 8.77
